The measurements presented in this section are drawn from BindingDB's records for patent US20240270732.

# Target system: Receptor-interacting serine/threonine-protein kinase 1 (Homo sapiens, UniProt Q13546)
# Sequence (Q13546 whole entry): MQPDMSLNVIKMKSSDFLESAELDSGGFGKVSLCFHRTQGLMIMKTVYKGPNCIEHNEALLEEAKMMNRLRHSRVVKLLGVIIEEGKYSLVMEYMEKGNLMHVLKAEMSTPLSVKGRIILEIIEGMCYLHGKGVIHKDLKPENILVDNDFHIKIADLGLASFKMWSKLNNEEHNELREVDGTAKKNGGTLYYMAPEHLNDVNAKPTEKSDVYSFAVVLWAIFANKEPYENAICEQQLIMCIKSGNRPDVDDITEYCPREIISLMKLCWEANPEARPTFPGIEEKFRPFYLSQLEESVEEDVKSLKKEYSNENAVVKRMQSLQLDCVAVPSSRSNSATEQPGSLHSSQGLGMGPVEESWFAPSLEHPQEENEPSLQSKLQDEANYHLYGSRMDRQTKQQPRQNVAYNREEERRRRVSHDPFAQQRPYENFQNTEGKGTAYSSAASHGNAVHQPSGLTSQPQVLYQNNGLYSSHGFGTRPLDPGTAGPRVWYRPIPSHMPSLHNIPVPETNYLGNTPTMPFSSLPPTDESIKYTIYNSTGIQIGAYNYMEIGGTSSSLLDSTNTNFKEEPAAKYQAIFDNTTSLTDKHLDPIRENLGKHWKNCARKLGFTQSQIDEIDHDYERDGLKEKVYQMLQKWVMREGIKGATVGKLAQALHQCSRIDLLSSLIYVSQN
# Test summary: Inhibitory Activity Assay
Entries annotated with measured IC50
Field: numeric (nM). Do not append units.

Reference set (4 entries):
C[C@H]1Oc2ccc(C#CCN3CCN(CC#Cc4ccc5c(c4)N(C)C(=O)[C@@H](NC(=O)c4n[nH]c(Cc6cccnc6)n4)[C@@H](C)O5)CC3)cc2N(C)C(=O)[C@H]1NC(=O)c1n[nH]c(Cc2cccnc2)n1 ... 16
C#CCN1CCN(CC#Cc2ccc3c(c2)N(C)C(=O)[C@@H](NC(=O)c2nnc(Cc4ccccc4)o2)[C@@H](C)O3)CC1 ... 16.2
C#CCN1CCN(CC#Cc2ccc3c(c2)N(C)C(=O)[C@@H](NC(=O)c2n[nH]c(Cc4cccc(O)c4)n2)[C@@H](C)O3)CC1 ... 19.4
C[C@H]1Oc2ccc(C#CCN3CCN(CC#Cc4ccc5c(c4)N(C)C(=O)[C@@H](NC(=O)c4cnn(Cc6ccccc6)c4)[C@@H](C)O5)CC3)cc2N(C)C(=O)[C@H]1NC(=O)c1cnn(Cc2ccccc2)c1 ... 13.3

Then there is this compound:
Record CN1C(=O)[C@@H](NC(=O)c2nnn(Cc3ccccc3)n2)COc2ccc(C#CCN3CCN(CC#Cc4ccc5c(c4)N(C)C(=O)[C@@H](NC(=O)c4nnn(Cc6ccccc6)n4)CO5)CC3)cc21 . Reported IC50: 6.16

====

# Target system: Receptor-interacting serine/threonine-protein kinase 1 (Homo sapiens, UniProt Q13546)
# Sequence (Q13546 whole entry): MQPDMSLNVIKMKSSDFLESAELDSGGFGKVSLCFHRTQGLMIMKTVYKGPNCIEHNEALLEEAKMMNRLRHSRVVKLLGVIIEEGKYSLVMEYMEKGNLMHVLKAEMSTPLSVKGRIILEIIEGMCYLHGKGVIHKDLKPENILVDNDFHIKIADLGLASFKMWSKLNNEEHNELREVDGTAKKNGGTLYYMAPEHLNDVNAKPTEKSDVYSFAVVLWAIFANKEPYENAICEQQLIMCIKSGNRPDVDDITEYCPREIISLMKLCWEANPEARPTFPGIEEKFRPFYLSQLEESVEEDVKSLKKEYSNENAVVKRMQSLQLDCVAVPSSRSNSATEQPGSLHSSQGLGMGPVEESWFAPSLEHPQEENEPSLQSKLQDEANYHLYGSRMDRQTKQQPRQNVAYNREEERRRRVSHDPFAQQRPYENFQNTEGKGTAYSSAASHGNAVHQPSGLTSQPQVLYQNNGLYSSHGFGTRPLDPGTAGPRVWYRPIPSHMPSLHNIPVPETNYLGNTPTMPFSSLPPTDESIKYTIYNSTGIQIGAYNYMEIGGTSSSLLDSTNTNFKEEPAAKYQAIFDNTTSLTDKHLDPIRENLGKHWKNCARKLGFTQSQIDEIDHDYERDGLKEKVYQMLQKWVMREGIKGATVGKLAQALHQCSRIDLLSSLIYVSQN
Quantity: pIC50
// scale note: pIC50 = -log10(conc_M); give the bare number

Some solved entries appear below for comparison.
C#CCN1CCN(CC#Cc2ccc3c(c2)N(C)C(=O)[C@@H](NC(=O)c2nnn(Cc4ccccc4)n2)[C@@H](C)O3)CC1 ... 8.05
C#CCN1CCN(CC#Cc2ccc3c(c2)N(C)C(=O)[C@@H](NC(=O)c2ncn(Cc4ccccc4)n2)[C@@H](C)O3)CC1 ... 8.38
C[C@H]1Oc2ccc(C#CCN3CCN(CC#Cc4ccc5c(c4)N(C)C(=O)[C@@H](NC(=O)c4n[nH]c(Cc6ccccc6)n4)[C@@H](C)O5)CC3)cc2N(C)C(=O)[C@H]1NC(=O)c1cn(Cc2ccccc2)cn1 ... 8.02
C[C@H]1Oc2ccc(C#CCN3CCN(CC#CC#CCN4CCN(CC#Cc5ccc6c(c5)N(C)C(=O)[C@@H](NC(=O)c5n[nH]c(Cc7ccccc7)n5)[C@@H](C)O6)CC4)CC3)cc2N(C)C(=O)[C@H]1NC(=O)c1n[nH]c(Cc2ccccc2)n1 ... 8.36

The record that follows has no pIC50 shown yet.
The molecule listed as C#Cc1ccc2c(c1)N(C)C(=O)[C@@H](NC(=O)c1nc(Cc3ccccc3)n[nH]1)[C@@H](C)O2 shows pIC50 equal to 8.01

====

# Target system: Receptor-interacting serine/threonine-protein kinase 1 (Homo sapiens)
# Sequence (Q13546 whole entry): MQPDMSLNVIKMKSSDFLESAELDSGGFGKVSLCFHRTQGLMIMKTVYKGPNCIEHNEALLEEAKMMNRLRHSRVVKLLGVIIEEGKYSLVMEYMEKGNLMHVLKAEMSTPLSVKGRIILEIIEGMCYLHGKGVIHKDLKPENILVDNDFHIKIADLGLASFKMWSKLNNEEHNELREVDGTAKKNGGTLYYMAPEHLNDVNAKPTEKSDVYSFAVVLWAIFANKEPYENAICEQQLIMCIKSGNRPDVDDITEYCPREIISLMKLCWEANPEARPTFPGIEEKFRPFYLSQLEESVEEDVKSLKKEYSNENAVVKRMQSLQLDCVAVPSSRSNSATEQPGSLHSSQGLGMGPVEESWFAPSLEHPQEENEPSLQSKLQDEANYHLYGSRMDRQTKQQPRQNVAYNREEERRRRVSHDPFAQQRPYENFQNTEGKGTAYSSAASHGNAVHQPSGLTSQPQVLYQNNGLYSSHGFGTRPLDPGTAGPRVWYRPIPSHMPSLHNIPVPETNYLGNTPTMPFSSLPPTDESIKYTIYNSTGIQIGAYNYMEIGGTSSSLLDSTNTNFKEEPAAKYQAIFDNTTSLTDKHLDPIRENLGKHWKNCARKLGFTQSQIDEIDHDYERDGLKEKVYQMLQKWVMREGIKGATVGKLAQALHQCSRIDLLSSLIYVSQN
pIC50: −log10 of the molar value.
Decision: pIC50 >= 8 yields True, all other cases yield False.

COCCOCCOCCOCCOCC#Cc1ccc2c(c1)N(C)C(=O)[C@@H](NC(=O)c1ncn(Cc3ccccc3)n1)[C@@H](C)O2 ... True

Kindly consider the entry below.
## Task Dear colleague, could you confirm whether C#CCN1CCN(CC#Cc2ccc3c(c2)N(C)C(=O)[C@@H](NC(=O)c2n[nH]c(Cc4ccncc4)n2)[C@@H](C)O3)CC1 has pIC50 at or above 8?
## Result False

====

# Target system: Receptor-interacting serine/threonine-protein kinase 1 (Homo sapiens)
Quantity: IC50 (nM)
API: value field is a number in nM; no unit string.

Example results:
C#CCN1CCN(CC#Cc2ccc3c(c2)N(C)C(=O)[C@@H](NC(=O)c2cn(Cc4ccccc4)nn2)[C@@H](C)O3)CC1 ... 15.1
C#CCN1CCN(CC#Cc2ccc3c(c2)N(C)C(=O)[C@@H](NC(=O)c2n[nH]c(Cc4ccccc4)n2)[C@@H](C)O3)CC1 ... 4.79
C[C@H]1Oc2ccc(C#CCOCCOCCOCCOCCOCC#Cc3ccc4c(c3)N(C)C(=O)[C@@H](NC(=O)c3ncn(Cc5ccccc5)n3)[C@@H](C)O4)cc2N(C)C(=O)[C@H]1NC(=O)c1ncn(Cc2ccccc2)n1 ... 8.99
C#CCN1CCN(CC#Cc2ccc3c(c2)N(C)C(=O)[C@@H](NC(=O)c2n[nH]c(Cc4cccc(N)c4)n2)[C@@H](C)O3)CC1 ... 23.9

Alright, here's another compound for you.
Sample C[C@H]1Oc2ccc(C#CCN3CCN(CC#Cc4ccc5c(c4)N(C)C(=O)[C@@H](NC(=O)c4ncn(Cc6ccccc6)n4)[C@@H](C)O5)CC3)cc2N(C)C(=O)[C@H]1NC(=O)c1ncn(Cc2ccccc2)n1 , system: Receptor-interacting serine/threonine-protein kinase 1 (Homo sapiens). Its IC50 is 4.66
